Target: HIF prolyl hydroxylase
Assay: Inhibition of the activity of HIF prolyl hydroxylase (VBC complex binding to hydroxylated peptide substrate)
Details: cell lysate containing prolyl hydroxylase
pIC50: −log10 of the molar value. Where a name gives a salt, the structure may show the parent alone.
Observed Property: pIC50

1) COCCN1CCN(c2cc(-n3[nH]cc(-c4cccnc4)c3=O)ncn2)CC1 [Example 28, dihydrochloride]    6.05
2) Cc1cc(C)n(-c2cc(-n3[nH]cc(-c4cccnc4)c3=O)ncn2)n1    6.15
3) O=c1c(-c2ccc(Cl)nc2)c[nH]n1-c1cc(N2CCOCC2)ncn1    6.32

* * *

Catalogue of compounds with associated IC50
Target: HIF prolyl hydroxylase
Assay: Inhibition of the activity of HIF prolyl hydroxylase (VBC complex binding to hydroxylated peptide substrate)
Conditions: cell lysate containing prolyl hydroxylase
Counter-ions that a name gives are not always drawn.
Observed Property: IC50 (µM)

1. O=c1c(-c2cccnc2)c[nH]n1-c1ccc(-c2ccccc2)nn1 [Example 22, hydrochloride]    2.7
2. CCN(CC)CCCCCCNc1cc(-n2[nH]cc(-c3cccnc3)c2=O)ncn1    1.7
3. O=c1c(-c2cccnc2)c[nH]n1-c1nc2ccccc2s1    2.8
4. N#Cc1cncc(-c2c[nH]n(-c3cc(N4CCCCC4)ncn3)c2=O)c1 [Example 44, hydrochloride]    1.12
5. CN(C)CCOc1cc(-n2[nH]cc(-c3cccnc3)c2=O)ncn1 [Example 26, hydrochloride]    4
6. O=c1c(-c2cccnc2)c[nH]n1-c1cc(N2CCOCC2)ncn1 [Example 18, hydrochloride]    0.18
7. O=c1c(-c2cccnc2)c[nH]n1-c1cnccn1 [Example 46, hydrochloride]    0.93
8. O=c1c(-c2cccnc2)c[nH]n1-c1nnc(-c2ccc(Cl)cc2)s1    0.88

Reference for the values: patent US8524699B2
